assay system: human recombinant BACE2 (Homo sapiens (Human), UniProt Q9Y5Z0)
Sequence (Q9Y5Z0 63-518): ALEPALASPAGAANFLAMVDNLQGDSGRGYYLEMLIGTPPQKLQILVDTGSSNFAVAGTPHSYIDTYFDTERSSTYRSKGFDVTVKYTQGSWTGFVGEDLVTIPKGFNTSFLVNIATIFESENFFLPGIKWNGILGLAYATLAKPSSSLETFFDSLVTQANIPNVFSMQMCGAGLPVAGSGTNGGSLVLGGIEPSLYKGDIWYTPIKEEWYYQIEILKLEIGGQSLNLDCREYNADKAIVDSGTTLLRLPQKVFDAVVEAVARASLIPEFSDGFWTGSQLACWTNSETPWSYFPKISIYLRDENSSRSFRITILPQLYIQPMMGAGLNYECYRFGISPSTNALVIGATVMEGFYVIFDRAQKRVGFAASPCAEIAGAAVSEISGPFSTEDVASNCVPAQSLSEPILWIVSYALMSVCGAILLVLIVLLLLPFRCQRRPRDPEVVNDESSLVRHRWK
protocol details: In vitro enzymatic BACE2 FRET assay
test context: read-out: BACE2 Enzyme IC50
Structures can show the parent of a compound that is named as a salt.
measure name: IC50 (nM)
Output spec: scalar in nM, unitless text.

Guide cases for IC50, answers given:
>>> value_reported("CC1(C)C(N)=N[C@](C)(c2cc(/C=C(\\F)c3ccc(C(F)(F)F)cn3)ccc2F)CS1(=O)=O")
43
>>> value_reported("CN1C(N)=N[C@](C)(c2cc(/C=C(\\F)c3cc(F)c(C#N)cn3)ccc2F)CS1(=O)=O")
14

Req: Query (compound): CC1(C)C(N)=N[C@](C)(c2cc(/C=C(\F)c3cc4c(cn3)OCCO4)ccc2F)[C@H](F)S1(=O)=O (single isomer, unassigned) ; field requested: IC50
Resp: 851

Req: # get_value(readout='IC50', item= `C#CCOc1cnc(/C(F)=C/c2ccc(F)c([C@@]3(C)N=C(N)[C@@]4(CF)CC[C@@H]3S4(=O)=O)c2)cn1` )
Resp: 57

Req: // IC50 lookup, key: `Cc1nnc(COc2cnc(/C(F)=C/c3ccc(F)c([C@]4(C)CS(=O)(=O)C(C)(C)C(N)=N4)c3)cn2)o1`
Resp: 409

Req: Find the recorded IC50 belonging to C#C[C@H](C)Oc1cnc(/C(F)=C/c2cc(F)c(F)c([C@]3(C)CS(=O)(=O)N(C)C(N)=N3)c2)cn1 [Example 167, hydrochloride] and report it.
Resp: 290

----------
assay system: human recombinant BACE2 (Homo sapiens (Human), UniProt Q9Y5Z0)
protocol details: In vitro enzymatic BACE2 FRET assay
test context: read-out: BACE2 Enzyme IC50
measure name: IC50 (nM)
Your answer should be a plain number; it is taken to be in nM.

Worked cases, IC50 given:
>>> value_reported("CN1C(N)=N[C@](C)(c2cc(/C=C(\\F)c3ccc(OC(F)(F)F)cn3)ccc2F)CS1(=O)=O")
40
>>> value_reported("C[C@]1(c2cc(/C=C(\\F)c3ccc(C#N)cn3)ccc2F)N=C(N)C2(CF)CC[C@@H]1S2(=O)=O (stereo in doubt)")
32
>>> value_reported("CC1(C)C(N)=N[C@](C)(c2cc(/C=C(\\F)c3cc4c(cn3)OCCO4)ccc2F)CS1(=O)=O")
790

Req: # lookup: IC50 of `CN1C(N)=N[C@](C)(c2cc(/C=C(\F)c3cnc(OCC(F)(F)F)cn3)ccc2F)C2(CC2)S1(=O)=O`
Resp: 2880

----------
assay system: UniProtKB P56817
protocol details: In vitro BACE1 cell-based assay (Aβ40 in conditioned medium of cells stably expressing APP, HTRF)
test context: Aβ40 in conditioned media after 24 h incubation
Sequence (P56817 46-501, species assumed): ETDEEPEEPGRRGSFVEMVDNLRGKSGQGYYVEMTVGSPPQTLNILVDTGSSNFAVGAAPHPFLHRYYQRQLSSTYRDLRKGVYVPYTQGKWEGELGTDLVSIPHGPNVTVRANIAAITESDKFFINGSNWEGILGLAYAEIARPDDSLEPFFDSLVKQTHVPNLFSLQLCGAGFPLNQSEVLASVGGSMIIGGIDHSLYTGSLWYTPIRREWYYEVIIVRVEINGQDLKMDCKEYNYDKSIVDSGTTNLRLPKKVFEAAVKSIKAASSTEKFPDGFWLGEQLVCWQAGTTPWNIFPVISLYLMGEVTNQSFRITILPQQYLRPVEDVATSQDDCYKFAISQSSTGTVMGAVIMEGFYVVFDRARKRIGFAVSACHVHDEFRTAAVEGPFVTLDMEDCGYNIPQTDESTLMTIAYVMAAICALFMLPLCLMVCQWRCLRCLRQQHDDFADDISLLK
pIC50: −log10 of the molar value.
Returns one of label 1 or label 0; label 1 when pIC50 is >= 8.

>>> class_name("C#C[C@H](C)Oc1cnc(/C(F)=C/c2ccc(F)c([C@]3(CF)CS(=O)(=O)C(C)(C)C(N)=N3)c2)cn1 [Example 195]")
"label 0"

Proceed to the following item.
Req: Could you verify whether the entry C#C[C@H](C)Oc1cnc(/C(F)=C/c2ccc(F)c([C@@]3(C)N=C(N)N(C)S(=O)(=O)C3(C)C)c2)cn1 [Example 186] shows pIC50 of no less than 8?
Resp: label 0

----------
assay system: BACE1 (Homo sapiens (Human), UniProt P56817)
protocol details: In vitro BACE1 cell-based assay (Aβ40 in conditioned medium of cells stably expressing APP, HTRF)
test context: Aβ40 in conditioned media after 24 h incubation
Readings of IC50 for the listed molecules
Use nM as the unit, but write only the number.

Examples from the recorded data:
>>> value_reported("CN1C(N)=N[C@](C)(c2cc(/C=C(\\F)c3ccc4c(n3)OCCO4)ccc2F)CS1(=O)=O")
3020
>>> value_reported("CN1C(N)=N[C@](C)(c2cc(/C=C(\\F)c3ccc(C#N)cn3)cc(F)c2F)CS1(=O)=O")
3
>>> value_reported("CCOc1cnc(/C(F)=C/c2ccc(F)c([C@@]3(C)N=C(N)[C@@]4(CF)CC[C@@H]3S4(=O)=O)c2)cn1")
527

Req: Which IC50 reading was recorded for the molecule `CN1C(N)=N[C@](C)(c2cc(/C=C(\F)c3cc(F)c(Cl)cn3)ccc2F)CS1(=O)=O` ?
Resp: 29

Req: // IC50 lookup, key: `CN1C(N)=N[C@](C)(c2cc(/C=C(\F)c3cnc(OCC(F)(F)F)cn3)ccc2F)C2(CC2)S1(=O)=O`
Resp: 1120

Req: // returns reported IC50 for input `CCCOc1cnc(/C(F)=C/c2ccc(F)c([C@@]3(C)N=C(N)[C@@]4(CF)CC[C@@H]3S4(=O)=O)c2)cn1`
Resp: 866

Req: Name the recorded IC50 for `CN1C(N)=N[C@](C)(c2cc(/C=C(\F)c3ccc(C(F)(F)F)cn3)cc(F)c2F)CS1(=O)=O` .
Resp: 13

Req: Record request: IC50 value, item `C#C[C@H](C)Oc1cnc(/C(F)=C/c2ccc(F)c([C@@]3(C)N=C(N)[C@@]4(CF)CC[C@@H]3S4(=O)=O)c2)cn1`
Resp: 18

Req: Recorded IC50 of `CN1C(N)=N[C@](C)(c2cc(/C=C(\F)c3ccc(C#N)s3)ccc2F)CS1(=O)=O` , please.
Resp: 99

Req: I have this molecule here, `CN1C(N)=N[C@](C)(c2cc(/C=C(\F)c3ccc(C#N)cn3)ccc2F)C2(CC2)S1(=O)=O` , and I need its recorded IC50.
Resp: 8

Req: Which value of IC50 has been reported for `C[C@]1(c2cc(/C=C(\F)c3cnc(OCC4COC4)cn3)ccc2F)N=C(N)[C@@]2(CF)CC[C@@H]1S2(=O)=O` in the records?
Resp: 457

Req: Please look up its IC50: `CC1(C)C(N)=N[C@](C)(c2cc(/C=C(\F)c3cnc(OCc4ccncc4)cn3)ccc2F)CS1(=O)=O`
Resp: 2230

----------
assay system: human recombinant BACE2 (Homo sapiens (Human))
protocol details: In vitro enzymatic BACE2 FRET assay
test context: read-out: BACE2 Enzyme IC50
Recorded log10(IC50) by entry
Units before log transform: µM; reported quantity: IC50; transform: log10.

Before answering, review these 3 worked examples.
>>> value_reported("CN1C(N)=N[C@](C)(c2cc(/C=C(\\F)c3ccc(C#CC4CC4)cn3)ccc2F)CS1(=O)=O")
-1.44
>>> value_reported("CC1(C)C(N)=N[C@](CF)(c2cc(/C=C(\\F)c3cnc(Cl)cn3)ccc2F)CS1(=O)=O")
-1.23
>>> value_reported("C#CCOc1cnc(/C(F)=C/c2cnc(F)c([C@]3(C)CS(=O)(=O)C(C)(C)C(N)=N3)c2)cn1")
-0.89

Req: Param item = `C#CCOc1cnc(/C(F)=C/c2ccc(F)c([C@]3(CF)CS(=O)(=O)C(C)(C)C(N)=N3)c2)cn1` ; retrieve measured log10(IC50).
Resp: -0.56

Req: Name the recorded log10(IC50) for `CN1C(N)=N[C@](C)(c2cc(/C=C(\F)c3cnc(Cl)cn3)ccc2F)C2(CC2)S1(=O)=O` .
Resp: -1.15

Req: Please report the recorded log10(IC50) for `CCOc1cnc(/C(F)=C/c2ccc(F)c([C@@]3(C)N=C(N)[C@@]4(CF)CC[C@@H]3S4(=O)=O)c2)cn1` .
Resp: -0.71

Req: What log10(IC50) value was documented for this compound, `CN1C(N)=N[C@](C)(c2cc(/C=C(\F)c3ncc4c(n3)OCCO4)ccc2F)CS1(=O)=O` ?
Resp: -0.26

----------
assay system: BACE1 (Homo sapiens (Human))
protocol details: In vitro enzymatic BACE1 FRET assay
Assay type: biochemical
test context: read-out: BACE1 Enzyme IC50
Sequence (P56817 46-501): as the sequence (P56817 46-501, species assumed) above
pIC50: −log10 of the molar value.
Where pIC50 equals or exceeds 7, the correct label is rule met; where it does not, the label is rule not met.

Look over these answered cases.
>>> class_name("CN1C(N)=N[C@](C)(c2cc(/C=C(\\F)c3cnc(OCc4ncco4)cn3)cc(F)c2F)CS1(=O)=O")
"rule met"
>>> class_name("CC1(C)C(N)=N[C@](C)(c2cc(/C=C(\\F)c3cnc(OCCn4ccnc4)cn3)ccc2F)CS1(=O)=O")
"rule not met"
>>> class_name("CC1(C)C(N)=N[C@](C)(c2cc(/C=C(\\F)c3ccc(F)cn3)ccc2F)CS1(=O)=O")
"rule met"

Req: Does the reported pIC50 for `CN1C(N)=N[C@](C)(c2cc(/C=C(\F)c3cnc(OCC(F)(F)C(F)F)cn3)ccc2F)CS1(=O)=O` fall at or above the 7 mark?
Resp: rule met

Req: // inclusive: pIC50 at least 7? input: `C[C@H]1COc2cnc(/C(F)=C/c3ccc(F)c([C@]4(C)CS(=O)(=O)N(C)C(N)=N4)c3)nc2O1`
Resp: rule not met

Req: Record COC(C)COc1cnc(/C(F)=C/c2ccc(F)c([C@]3(C)CS(=O)(=O)N(C)C(N)=N3)c2)cn1 (stereo partly shown) ; criterion: pIC50 no lower than 7. Met?
Resp: rule met

Req: Is reported pIC50 greater than or equal to 7 here: `CC1(C)C(N)=N[C@](C)(c2cc(/C=C(\F)c3ccc(C#N)cn3)cnc2F)CS1(=O)=O`
Resp: rule met

FYI, the data here is from patent US11021493B2.
